# TEST_DESCRIPTION: Potency was evaluated on frog rectus abdominis
# Assay type: functional, Rectus abdominis muscle
Some compounds, each annotated with its measured ED50.

// solved cases for ED50 follow
> print(dat)
                                   compound  recorded.value
1    C[N+](C)(C)CCOC(N)=O.[Cl-] [CARBACHOL]        4.04e-06
2        C[C@H]1O[C@H](CN(C)C)CS1 (racemic)         1.7e-05
3  C[C@@H]1O[C@H](C[N+](C)(C)C)C[C@H]1O [MUSCARINE]         >0.0005
4  C[C@H]1O[C@H](CN(C)C)CS1 (stereo in doubt; (+)-10)        1.84e-05

Consider the additional compound presented here.
Request: Returns the measured ED50 for the input compound. Input: C[C@H]1O[C@H](CN(C)C)CS1 (stereo in doubt; (-)-10)
Response: 1.12e-05
